pIC50: recorded values
Biological target: GRK6, recombinant full-length GST-tagged human protein (Homo sapiens (Human))
Sequence (P43250 whole entry): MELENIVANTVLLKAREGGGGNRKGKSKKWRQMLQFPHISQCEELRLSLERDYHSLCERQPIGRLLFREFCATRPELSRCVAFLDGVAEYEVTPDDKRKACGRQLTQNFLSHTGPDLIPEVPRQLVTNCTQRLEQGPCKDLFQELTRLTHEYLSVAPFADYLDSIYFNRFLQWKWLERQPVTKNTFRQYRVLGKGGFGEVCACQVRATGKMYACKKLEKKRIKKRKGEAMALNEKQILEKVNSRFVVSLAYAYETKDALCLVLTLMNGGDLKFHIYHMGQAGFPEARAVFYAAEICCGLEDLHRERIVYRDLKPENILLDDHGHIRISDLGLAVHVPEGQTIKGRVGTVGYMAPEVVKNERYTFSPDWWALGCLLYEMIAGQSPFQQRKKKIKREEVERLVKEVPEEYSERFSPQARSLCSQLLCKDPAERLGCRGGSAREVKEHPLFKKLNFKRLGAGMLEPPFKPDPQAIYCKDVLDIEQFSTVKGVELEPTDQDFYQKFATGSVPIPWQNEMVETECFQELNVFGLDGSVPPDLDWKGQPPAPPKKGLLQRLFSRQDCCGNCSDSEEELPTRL
Experiment: GRK6 LabChip microfluidic mobility shift kinase assay
Type: biochemical
Conditions: 8-point concentration-response, top concentration 60 μM, ATP 12 μM (Km)
Units for pIC50: none; it is -log10 of a concentration expressed in mol/L.

Sample answers from the record:
molecule	pIC50
CCCCCn1c(N)c(C(=O)OC)c2nc3ccccc3nc21	5.99
CCN(CC)c1ccc(C(c2c(C)n[nH]c2O)c2c(C)n[nH]c2O)cc1	5.00
CCOC(=O)c1ccc(CC(=O)c2ccc(O)c(O)c2O)o1	5.15
O=c1cc(-c2ccc(O)cc2)oc2cc(O)c(O)c(O)c12	5.18

--- query ---
Query block: Can you share its pIC50? I mean this molecule: `CCCCCCn1c(N)c(C(=O)OC)c2nc3ccccc3nc21`
Result block: 5.84
